study system: pooled human IgG (human IgG1, 2, 3 and 4)
Classification field: T = Enzyme Activity Endpoint Assay: Fc at or over 60 ng/µL; F = Enzyme Activity Endpoint Assay: Fc under 60 ng/µL.

1. PRT-463 (protein) MVTSVWTKGVTPPANFRKIVDGNIAYYHAPYVANQGWYDITKTFNGKDDLLCGAATAGNMLHWWFDQNKDQIERYLKEHPEKQKINFNGEQMFDVKEAIDTKDSQTDSKLFEYFKEKAFPYLSTKHLGVFPDHVLDMFINGYRLSLTNHGPTPVKEGSKDPRGGIFDAVFTRGDQSKLLTSRHDLKNKTLKEISDLIKQELTEGKALGLSHTYANVRINHVINLWGADFDSEGNLKAIYVTDSDSNASIGMKKYFVGVNSAGKVAISAKEIKEDNIGAQVLGLFTLSTGQDIWNQTNLEHHHHHH = T
2. PRT-433 (protein) MSQTEDSESLQRLRDIEDFQAEKKKQNVVYTKWLDGVDVKDHDFRKIVDGNIAYYATPLLNGRGFYDINKDFNRDSDKCAAAVAANMFHYWLDRNRDNVDRFLRQNPEKHGIIELPDGQLKLSDFLNTYESDDGYRDKSKLFDFISNNFNGPVWTDKLLDNYINGYAYNYKYGRTIEDPTKNTSKINFFKEVFNEKILTNNHSIRNQNEFSVLLIEALYTGKAIGLSYGPAGLRHSLGHIISVWGADLDADGNVVAIYVTDSDDKKLTIGDERVGLKRYKISTDDEGRLRLTAYEETHNTGGQIRGLWTLDTGKQAWADYFDKTEQTGTDQAEQ = T
3. PRT-519 (protein) MVTSVWTKGVTPPTDFIKGEDVFHAPYKAGQGWYDITKTFNGKDNLLCGAATAGNMLHWWFDQNKEYIEAYLKKHPEKQKIIFNNQELFDLKAAINTKGSQKNSELFNYFRDKAFPNLSARRLGVFPDLVLDMFINGYYLNVTKTQTTDVNRTYQEKDKRGGIFDAVFTRGVQSKLLTSRHDLKNKGLKEISDLIKQELTEGKALGLSHTYANVRINHVINLWGADFDSDGNLKAIYVTDSDTNASIGMKKYFVGVNSAGKVAISAKEIKEDNIGAQVLGLFTLSTGQDIWNQTNLEHHHHHH = F
4. PRT-543 (protein) MANQEIRYSKNENPNVTIKWVHGIGEPTQSEKEKIEFWWYETTTTKFFNNRKVDPLGDGNQCWAKTDSNMLHWWFVQNEENINQYIEKKNITGKINFNGEQMFDVKEGIDDNQEPEKSYIANTFRTKKAHNLSTKHKGDYIINGLSWYLYGLNNFKNAHGPTPVKKKPKFYGPALFKDVFNRGDGNTPIIVETDFKEYTKKEFEDTLSAALDSKKAIGINIYGSNVDYQHAITLWGAAFDEEENIIAIYVVDNNFKFENRIFPYGIWYEKEGRPYLFNYEINSFVKNRYVGEITTLDKGEAQWQETNLEHHHHHH = F
5. PRT-383 (protein) MVTSVWTKGVTPPTNFTYGEDVLHAPYVANQGWYDITKTFNGKDDLLCGAATAGNMLHWWFDQNKEQIENYLKKHPEKQKINFNGEQMFDVKEAIDTKDSQLDSKLFDYFKEKAFPYLSTKHLGVFPDHVIDMFINGYRLSLTNHGPTPVKRGSKDPRGGIFDAVFTRGDQSKLLTNRHDFKEKTLKEISDLIKQELTEGKALGISHTYANVRINHVINLWGADFDAEGNLEAIYVTDSDSNASIGMKKYFVGVNSNGKVAISAKEIEEDNIGAQVLGLFTLSTGQDIWNQTN = T
6. PRT-464 (protein) MVTSVWTKGVTPPANFTQGEDVFHAPYVANQGWYDITKAFDGGDDLLCGAATAGNMLHWWFDQNKDQIERYLKEHPEKQKINFNGEQMFDVKEAIDTKDSQTNSELFNYFKEKAFPYLSTKHLGVFPDHVLDMFINGYRLSLTNHGPTPVKEGSKDPRGGIFDAVFTRGDQSKLLTSRHDLKNKTLKEISDLIKQELTEGKALGLSHTYANVRINHVINLWGADFDSEGNLKAIYVTDSDSNASIGMKKYFVGVNSAGKVAISAKEIKEDNIGAQVLGLFTLSTGQDIWNQTNLEHHHHHH = F

Decide: is the reported value of Enzyme Activity Endpoint Assay: Fc for PRT-522 (protein) MITSVWTKGVTPPTDFIKGEDVFHAPYKAGQGWYDITKTFNGKDNLLCGAATAGNMLHWWFDQNKEEIEAYLKKHPEKQKIIFNNQELFDLKAVINTKDSQTNSALFNYFKDKAFPNLSARRLGVFPDLVLDMFINGYYLNVYKTQTTDVNRTYQTKDRRGGIFDAVFTRGVQSKLLTERHDFKEKTLKEISDLIKQELTEGKALGLSHTYANVRINHVINLWGADFDSNGNLEAIYVTDSDTNASIGMKKYFVGVNSAGKVAISAKEIKEDNIGAQVLGLFTLSTGQDIWNQTNLEHHHHHH equal to or greater than 60 ng/µL?
T

Decide: is the reported value of Enzyme Activity Endpoint Assay: Fc for PRT-534 (protein) MANQEIRYSSDSEWANKKVWVYGITPPEEGAWKYSTYYLPWKKEYGWYDCNKRNPTADGMMCWAATASNLLHWWIAQNKEYIDLYGDKYKGPDKINFNGEQMFDVKEYIDPLDKPQESDIFQCFIDKSFADLSTKHEAGYGDAGINWFIHGIIPSSPAHGPTPVKLDYPYNPAGYFKDVFPRGDGVVLLGNNGDFKELSKERFNETIKDALKNKKAIGLSIGPVNVRSSHVVTIWGAEFDENGDVSYIYMADNNDNWGVGCIRYQIVYEEGGTYTCYKTEIIPSDRPIPINRLVTLELGEEYWKQTNLEHHHHHH equal to or greater than 60 ng/µL?
F

Data credit: patent US20250027068
